Each entry below lists one item and its recorded Kd value.
Target: T1, EsCas13d, nuclease-dead (Eubacterium siraeum, UniProt B0MS50, R295A;H300A;R849A;H854A)
T1 sequence: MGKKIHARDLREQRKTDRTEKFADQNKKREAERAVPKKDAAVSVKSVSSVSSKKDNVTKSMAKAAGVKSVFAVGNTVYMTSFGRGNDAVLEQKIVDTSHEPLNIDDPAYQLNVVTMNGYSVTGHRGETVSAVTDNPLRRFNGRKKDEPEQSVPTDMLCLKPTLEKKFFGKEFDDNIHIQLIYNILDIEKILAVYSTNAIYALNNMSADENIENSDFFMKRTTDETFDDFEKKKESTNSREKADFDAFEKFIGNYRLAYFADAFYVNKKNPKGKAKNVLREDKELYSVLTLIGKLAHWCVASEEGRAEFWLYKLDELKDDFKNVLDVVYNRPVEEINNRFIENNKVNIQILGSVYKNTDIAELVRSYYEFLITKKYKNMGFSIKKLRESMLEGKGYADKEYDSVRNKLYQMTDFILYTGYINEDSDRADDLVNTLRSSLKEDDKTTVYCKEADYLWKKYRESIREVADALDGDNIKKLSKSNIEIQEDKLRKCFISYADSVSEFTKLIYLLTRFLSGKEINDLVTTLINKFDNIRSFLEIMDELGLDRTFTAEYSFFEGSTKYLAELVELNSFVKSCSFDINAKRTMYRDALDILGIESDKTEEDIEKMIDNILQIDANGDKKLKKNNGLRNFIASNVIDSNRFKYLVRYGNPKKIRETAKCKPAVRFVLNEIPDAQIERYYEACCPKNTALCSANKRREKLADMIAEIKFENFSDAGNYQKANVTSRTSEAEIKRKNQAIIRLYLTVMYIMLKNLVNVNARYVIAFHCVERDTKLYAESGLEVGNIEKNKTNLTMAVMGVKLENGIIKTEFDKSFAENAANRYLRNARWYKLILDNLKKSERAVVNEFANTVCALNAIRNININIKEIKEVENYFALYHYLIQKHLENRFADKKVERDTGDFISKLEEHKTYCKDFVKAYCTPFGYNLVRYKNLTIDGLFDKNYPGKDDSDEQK
Experiment: crRNA (strand 1, pre-loaded); Mg2+; 40 mM Tris-HCl pH 7.5, 150 mM NaCl, 6 mM MgCl2, 1 mM DTT, 0.1% Tween-20, 0.2 mg/ml BSA; 25 C; 10 min per concentration, then washed
Conditions: tags: His6-TwinStrep-SUMO cleaved; N-terminal SNAP kept (SNAP-Surface 488); label: 3' end held by stalled T7 RNA polymerase
Write down the numeric answer in nM and omit the unit.

Guide cases for Kd, answers given:
>  <BINDER>
target 1 insC 3' of 16,insG 3' of 7 (mixed) RNA 1: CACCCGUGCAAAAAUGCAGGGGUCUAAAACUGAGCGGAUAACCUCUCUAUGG RNA 2: GGGAAUGGAUCCACAUCUACGAAUUCGUACCAUAGACGAGGUUAUCGCGCUCACCGAGAUCGGAAGAGCACACGU

>  <Kd (nM)>
66

$$$$
>  <BINDER>
target 1 del6,del7 (mixed) RNA 1: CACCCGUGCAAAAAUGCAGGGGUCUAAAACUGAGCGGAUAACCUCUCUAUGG RNA 2: GGGAAUGGAUCCACAUCUACGAAUUCGUACCAUAGAGAGGUUAUGCUCACCGAGAUCGGAAGAGCACACGU

>  <Kd (nM)>
11.4

$$$$
>  <BINDER>
target 1 A1G,C4U (mixed) RNA 1: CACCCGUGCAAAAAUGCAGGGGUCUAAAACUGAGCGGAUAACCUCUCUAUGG RNA 2: GGGAAUGGAUCCACAUCUACGAAUUCGUACCAUAGAGAGGUUAUCCGUUCGCCGAGAUCGGAAGAGCACACGU

>  <Kd (nM)>
31

$$$$

Record request: Kd value, item target 2 MT 5'PFS GUG 3'PFS AUG (mixed) RNA 1: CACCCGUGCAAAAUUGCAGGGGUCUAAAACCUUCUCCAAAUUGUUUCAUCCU RNA 2: GGGAAUGGAUCCACAUCUACGAAUUCGUGAGGAUGAAACAAUUUGGAGAAGAUGAGAUCGGAAGAGCACACGU
13.8
